src = patent US4341893A

I'd appreciate it if you could supply LD50 values for the items below.
assay.protocol: LD 50 rat (Table II)
run.conditions: in vivo, po, perorally

[
  {
    "smiles.repr": "COc1cc2nc(N3CCC(C(=O)c4nnc(SC)o4)CC3)nc(N)c2cc1OC",
    "LD50": "> 500 mg/kg"
  }
]

Then this compound:
Exercise: For the compound shown here, "COc1cc2nc(N(C)CCCN(C)C(=O)c3ccccc3)nc(N)c2cc1OC" , give the reported LD50.
Key: > 500 mg/kg

---

System: spontaneously hypertensive male rats (Okamoto strain)
assay.protocol: Anti-hypertensive effect in spontaneously hypertensive rats, systolic pressure
Format: in vivo
run.conditions: 10 mg/kg perorally, 4 hours, spontaneously hypertensive rat
Mark condition not met for % variation of the pressure after 4 hours values under -20%, and condition met for everything at or above.

Solved cases (3 shown):
[
  {
    "smiles.repr": "COc1cc2nc(N3CCC(C(=O)c4ccc5c(c4)OCO5)CC3)nc(N)c2cc1OC",
    "label.class": "condition not met"
  },
  {
    "smiles.repr": "COc1cccc(C(=O)C2CCN(c3nc(N)c4cc(OC)c(OC)cc4n3)CC2)c1",
    "label.class": "condition not met"
  },
  {
    "smiles.repr": "COc1cc2nc(NCCCN(C)C(=O)c3ccccc3)nc(N)c2cc1OC",
    "label.class": "condition not met"
  }
]

Exercise: Is reported % variation of the pressure after 4 hours greater than or equal to -20% here: "COc1cc2nc(N3CCC(C(=O)c4ccccc4)CC3)nc(N)c2cc1OC"
Key: condition not met

Exercise: Follow-up item: "COc1cc2nc(N(C)CCCN(C)C(=O)c3ccccc3)nc(N)c2cc1OC"
Key: condition met

Exercise: Follow-up item: "COc1cc2nc(N3CCC(C(=O)c4cccs4)CC3)nc(N)c2cc1OC"
Key: condition not met
